Record form. Attribute: Pre-emerge herbicidal activity, phytotoxicity rating ABUTH. Fill in for each entry.
- Tested on: velvetleaf (Abutilon theophrasti, ABUTH)
- testDetails: Pre-emerge test, greenhouse herbicide activity screening
- Assay type: in vivo
- conditionInfo: 250 g ai/ha; rating scale 0-100, 14 days after application
Give the figure by itself; no unit, no explanation.

// query Pre-emerge herbicidal activity, phytotoxicity rating ABUTH value for entry CCCCCOC(=O)C(Cl)Cc1c(OC)c(Cl)cc(F)c1-n1c(=O)cc(C(F)(F)F)n(C)c1=O (single isomer, unassigned) [14-11]
100

Same question for CCCCCOC(=O)C(Cl)Cc1c(OC)c(Cl)cc(F)c1-n1c(=O)cc(C(F)(F)F)n(C)c1=O (single isomer, unassigned) [14-10] please.
90

Please answer likewise for COc1c(Cl)cc(F)c(-n2c(=O)cc(C(F)(F)F)n(C)c2=O)c1CC(Cl)C(=O)OCC(Br)CBr (single isomer, unassigned)
50

Item: COc1c(Cl)cc(F)c(-n2c(=O)cc(C(F)(F)F)n(C)c2=O)c1CC(Cl)C(=O)OCC(C)C (single isomer, unassigned) [14-15]
100

Next record, please: C=COC(=O)C(C)(Cl)Cc1c(OC)c(Cl)cc(F)c1-n1c(=O)cc(C(F)(F)F)n(C)c1=O (stereo not shown)
95

Here is the next compound: C#CCOC(=O)C(C)(Cl)Cc1c(OC)c(Cl)cc(F)c1-n1c(=O)cc(C(F)(F)F)n(C)c1=O (stereo not shown)
100

Record: COc1c(Cl)cc(F)c(-n2c(=O)cc(C(F)(F)F)n(C)c2=O)c1CC(Cl)C(=O)OCC(C)C (single isomer, unassigned) [14-14]
20

* * *

Assign Pre-emerge Herbicidal Activity SORHA (phytotoxicity rating, scale 0-100) to each entry below.
- Test system: johnsongrass (Sorghum halepense, SORHA)
- testDetails: Pre-emerge test, greenhouse herbicide activity screening
- Type: in vivo
- conditionInfo: 250 g ai/ha; pre-emerge; rated 14 days after application; 0 = no damage, 100 = complete death
No unit in the answer, only the number.

Param readout= Pre-emerge Herbicidal Activity SORHA (phytotoxicity rating, scale 0-100); system= johnsongrass (Sorghum halepense, SORHA); entry= CCn1c(C(F)(F)F)cc(=O)n(-c2c(F)cc(Cl)c(OC)c2N)c1=O ; returns value.
20

How about this molecule: COc1c(Cl)cc(F)c(-n2c(=O)cc(C(F)(F)F)n(C)c2=O)c1NC(=O)c1ccc(C)cc1
100

Lookup CCOC(=O)C(C)Nc1cc(Cl)cc(F)c1-n1c(=O)cc(C(F)(F)F)n(C)c1=O (stereo not drawn)
100

Then this molecule: O=c1cc(C(F)(F)F)[nH]c(=O)n1-c1c(F)cc(Cl)c(O)c1[N+](=O)[O-]
0

Then COc1c(Cl)cc(F)c(-n2c(=O)c(NC(=O)C(F)(F)F)c(C(F)(F)F)n(C)c2=O)c1NC(=O)C(F)(F)F ?
0

Quick one: CCOC(=O)COc1c(Cl)cc(F)c(-n2c(=O)cc(C(F)(F)F)n(C)c2=O)c1N
85

Next molecule up: Cn1c(C(F)(F)F)cc(=O)n(-c2c(F)cc(Cl)c(OC3CCCC3)c2N)c1=O
90

Quick one: Cn1c(C(F)(F)F)cc(=O)n(-c2c(F)cc(Cl)c(OCC#N)c2NC(=O)C(F)(F)F)c1=O
50

Item: C=C(C)C(=O)N(C(=O)C(=C)C)c1c(OC)c(Cl)cc(F)c1-n1c(=O)cc(C(F)(F)F)n(C)c1=O
20

Next up: C=Cc1ccc(C(=O)Nc2c(OC)c(Cl)cc(F)c2-n2c(=O)cc(C(F)(F)F)n(C)c2=O)cc1
85

Then what about the molecule CC(C)Oc1c(Cl)cc(F)c(-n2c(=O)cc(C(F)(F)F)n(C)c2=O)c1N ?
99

Now consider Cc1c(Cl)cc(F)c(-n2c(=O)cc(C(F)(F)F)n(C)c2=O)c1N and answer again.
100

Then this molecule: COc1c(Cl)cc(F)c(-n2c(=O)cc(C(F)(F)F)n(C)c2=O)c1NC(=O)c1cccc(C)c1
90

CCOc1c(Cl)cc(F)c(-n2c(=O)cc(C(F)(F)F)n(C)c2=O)c1N ?
99

Next entry: CCOC(=O)C(C)Oc1c(Cl)cc(F)c(-n2c(=O)cc(C(F)(F)F)n(C)c2=O)c1N (stereo not drawn)
100

* * *

- System: field corn (Zea mays L., var. Dekalb 535, CORN)
- testDetails: Post-emerge test, crop safety
- Format: in vivo
- conditionInfo: Rate 63 g ai/ha; rating scale 0-100 (0 no damage, 100 complete death); 14 days after application
endpointName: Post-emerge phytotoxicity rating CORN (crop damage)
Lab note: jot down the number only; don't add units.

# get_value(readout='Post-emerge phytotoxicity rating CORN (crop damage)', item= COc1c(Cl)cc(F)c(-n2c(=O)cc(C(F)(F)F)n(C)c2=O)c1CC(C)(Cl)C(=O)OCc1ccccc1 (stereo not drawn) )
100

Moving on to CCCOC(=O)C(Cl)Cc1c(OC)c(Cl)cc(F)c1-n1c(=O)cc(C(F)(F)F)n(C)c1=O (single isomer, unassigned) [14-6]
50

Similarly, COc1c(Cl)cc(F)c(-n2c(=O)cc(C(F)(F)F)n(C)c2=O)c1CC(Cl)C(=O)OCC(F)(F)C(F)(F)C(F)(F)F (single isomer, unassigned) [14-23] ?
0

* * *

- Test system: ivyleaf morningglory (Ipomoea hederacea, IPOHE)
- testDetails: Post-emerge test, greenhouse herbicide activity screening
- Format: in vivo
- conditionInfo: post-emerge, 63 g ai/ha, 14 days after application, rating scale 0-100
endpointName: phytotoxicity rating IPOHE
// keep it numeric: no unit symbol after the value

Please give the measured phytotoxicity rating IPOHE for this molecule: CCc1ccc(COC(=O)Nc2c(OC)c(Cl)cc(F)c2-n2c(=O)cc(C(F)(F)F)n(C)c2=O)cc1
100

Next: COc1c(Cl)cc(F)c(-n2c(=O)cc(C(F)(F)F)n(C)c2=O)c1N(C(=O)C=Cc1ccccc1Cl)C(=O)C=Cc1ccccc1Cl
10

Another molecule: COc1c(Cl)cc(F)c(-n2c(=O)cc(C(F)(F)F)n(C)c2=O)c1NC(=O)OCc1cccc(F)c1
100

Moving on to COc1ccc(C(=O)Nc2c(OC)c(Cl)cc(F)c2-n2c(=O)cc(C(F)(F)F)n(C)c2=O)cc1
100

Input CNC(=O)N(C(=O)NC)c1c(OC)c(Cl)cc(F)c1-n1c(=O)cc(C(F)(F)F)n(C)c1=O
0

Then COc1c(Cl)cc(F)c(-n2c(=O)cc(C(F)(F)F)n(C)c2=O)c1NC(=O)c1ccc(CCl)cc1 ?
100

What about this molecule? COc1c(Cl)cc(F)c(-n2c(=O)cc(C(F)(F)F)n(C)c2=O)c1NC(=O)c1ccccc1F
99

Now this one: Cn1c(C(F)(F)F)cc(=O)n(-c2c(F)cc(Cl)c(OC(F)F)c2NC(=O)c2ccc3ccccc3c2)c1=O
90

Moving on to the next molecule: COc1c(Cl)cc(F)c(-n2c(=O)cc(C(F)(F)F)n(C)c2=O)c1NC(=O)OCc1ccc(C(F)(F)F)cc1
40

// next record COc1c(Cl)cc(F)c(-n2c(=O)cc(C(F)(F)F)n(C)c2=O)c1NC(=O)c1ccc(OC(F)(F)F)cc1
50

Again, but for Cn1c(C(F)(F)F)cc(=O)n(-c2ccc(Cl)cc2NC(=O)C2CC2)c1=O
30

Item: Cc1ccc(-n2c(=O)cc(C(F)(F)F)n(C)c2=O)c(NC(=O)c2ccc3ccccc3c2)c1
95

Cc1cccc(C)c1OC(=O)Nc1c(C)c(Cl)cc(F)c1-n1c(=O)cc(C(F)(F)F)n(C)c1=O ?
40

For COc1c(Cl)cc(F)c(-n2c(=O)cc(C(F)(F)F)n(C)c2=O)c1NC(=O)OCc1ccc2ccccc2c1 then?
60

Next: COc1c(Cl)cc(F)c(-n2c(=O)cc(C(F)(F)F)n(C)c2=O)c1NC(=O)OC(C)c1ccccc1 (stereo not drawn)
85

* * *

- Test system: field corn (Zea mays L., var. Dekalb 535, CORN)
- testDetails: Pre-emerge test, crop safety
- Format: in vivo
- conditionInfo: 250 g ai/ha; pre-emerge; rated 14 days after application; 0 = no damage, 100 = complete death
- Description: A standard greenhouse herbicide activity screening system was used to evaluate the herbicidal efficacy and crop safety of these test compounds. […] At 14 days after application of the test materials, phytotoxicity ratings were recorded. […]
Note to self: class = bucket of Pre-emerge crop damage CORN (phytotoxicity rating, scale 0-100), per low = under 10, moderate = from 10 up to 60, high = 60 and over

For Cn1c(C(F)(F)F)cc(=O)n(-c2c(F)cc(Cl)c(OC3CCCC3)c2N)c1=O [Compound 1-21] , which Pre-emerge crop damage CORN (phytotoxicity rating, scale 0-100) bin applies?
low

Lookup C=Cc1ccc(C(=O)Nc2c(OC)c(Cl)cc(F)c2-n2c(=O)cc(C(F)(F)F)n(C)c2=O)cc1 [2-31]
moderate

Thanks! And CCCc1ccc(C(=O)N(C(=O)c2ccc(CCC)cc2)c2c(OC)c(Cl)cc(F)c2-n2c(=O)cc(C(F)(F)F)n(C)c2=O)cc1 [2-29] ?
moderate

Another compound to look at: C#CCOc1c(Cl)cc(F)c(-n2c(=O)cc(C(F)(F)F)n(C)c2=O)c1N [Compound 1-19]
high

Repeat for the following compound: Cn1c(C(F)(F)F)cc(=O)n(-c2c(F)cc(Cl)c(OCC#N)c2N)c1=O [Compound 1-18]
high

Entry to check: CCn1c(C(F)(F)F)cc(=O)n(-c2c(F)cc(Cl)c(OC)c2N)c1=O [Compound 1-15]
low

Now give it for COc1c(Cl)cc(F)c(-n2c(=O)cc(C(F)(F)F)n(C)c2=O)c1NC(=O)CC#N [2-14] too.
low

Could you do the same for CCOC(=O)C(C)Nc1cc(Cl)cc(F)c1-n1c(=O)cc(C(F)(F)F)n(C)c1=O (stereo not shown) [Compound 1-54] , please?
high

Try the compound COC(=O)C(=O)Nc1c(OC)c(Cl)cc(F)c1-n1c(=O)cc(C(F)(F)F)n(C)c1=O [2-15]
low

What about COc1c(Cl)cc(F)c(-n2c(=O)cc(C(F)(F)F)n(C)c2=O)c1NC(=O)C1CCCCC1 [2-19] ?
moderate

And then CCOC(=O)C(C)Nc1cc(OC(F)F)cc(F)c1-n1c(=O)cc(C(F)(F)F)n(C)c1=O (stereo not shown) [Compound 1-53] , what is it?
high

Query COC(=O)C=CCOc1c(Cl)cc(F)c(-n2c(=O)cc(C(F)(F)F)n(C)c2=O)c1N [Compound 1-20] next
high

How about COc1c(Cl)cc(F)c(-n2c(=O)cc(C(F)(F)F)n(C)c2=O)c1N(C(=O)C=C(C)C)C(=O)C=C(C)C [2-8] ?
moderate

Next up: CCOc1c(Cl)cc(F)c(-n2c(=O)cc(C(F)(F)F)n(C)c2=O)c1N [Compound 1-61]
high

FYI, the data here is from patent US6355799B1.
